The compounds listed here are annotated with their GI50.
tested on: NCI-H522; experiment: NCI tumour cell line growth inhibition, 48 h
Active and inactive are the calls of the source. No stated cut-off is given here; in the data, active = GI50 up to about 1.1 µM and inactive = higher.

These solved cases illustrate the format of a correct answer.
{"COMPOUND": "Cc1ccc(C2COc3cc(O)c(O)cc3C2)cc1 (stereo unspecified)", "PARAMETER MEASURED": "GI50", "OBSERVED MEASUREMENT": "4.06 µM (inactive)"}
{"COMPOUND": "CCOC(=O)c1ccc(C)c(/N=N/N(C)C)c1", "PARAMETER MEASURED": "GI50", "OBSERVED MEASUREMENT": "> 100 µM (inactive)"}
{"COMPOUND": "COc1c(-c2ccc(O)c(O)c2)oc2c(O)c(O)cc(O)c2c1=O", "PARAMETER MEASURED": "GI50", "OBSERVED MEASUREMENT": "32.1 µM (inactive)"}
{"COMPOUND": "CN(C)CC(C)(C)/C(=N\\Nc1ccccc1)c1ccccc1", "PARAMETER MEASURED": "GI50", "OBSERVED MEASUREMENT": "44.3 µM (inactive)"}
{"COMPOUND": "CC(C)(O)C(O)COc1c2c(cc3oc(=O)ccc13)OCO2 (stereo unspecified)", "PARAMETER MEASURED": "GI50", "OBSERVED MEASUREMENT": "> 100 µM (inactive)"}
{"COMPOUND": "CC(C)c1cc(Cl)nc(Cl)n1", "PARAMETER MEASURED": "GI50", "OBSERVED MEASUREMENT": "> 100 µM (inactive)"}

Lookup: // map CC/C=C/c1cc2cc[nH]c2c2c1C(C)C[C@@H]2C (stereo partly specified) to recorded GI50 (system: NCI-H522)
Found: 18.1 µM (inactive)

Lookup: // map CCc1ccc2c(c1)/C(=C1/Nc3ccccc3/C1=N/O)C(=O)N2 to recorded GI50 (system: NCI-H522)
Found: 3.43 µM (inactive)

Lookup: // map CCCN(CCC)C(=O)c1c([N+](=O)[O-])cc(C(F)(F)F)cc1[N+](=O)[O-] to recorded GI50 (system: NCI-H522)
Found: 23.2 µM (inactive)

Lookup: // map C=C(C)CCC1C=[N+]([O-])OC(C)(C)C1(C)C (stereo unspecified) to recorded GI50 (system: NCI-H522)
Found: > 100 µM (inactive)

Lookup: // map O=C(O)CCC(NC(=O)c1ccc(Nc2nc3ccccc3nc2C(=O)O)cc1)C(=O)O (stereo unspecified) to recorded GI50 (system: NCI-H522)
Found: > 100 µM (inactive)

---

tested on: U-251; test: NCI tumour cell line growth inhibition, 48 h
Active and inactive are the calls of the source. Cut-off read from the data, not from the text of the source: active = GI50 up to about 1.1 µM and inactive = higher.
PARAMETER MEASURED: GI50

These solved cases illustrate the format of a correct answer.
{"COMPOUND": "COc1ccc(CN/C=N/C(C#N)=C(\\N)C#N)cc1OC", "GI50": "> 100 µM (inactive)"}
{"COMPOUND": "Oc1cc(-c2ccc3c(c2)OCO3)nc2cc3c(cc12)OCO3", "GI50": "30.5 µM (inactive)"}
{"COMPOUND": "Cc1ccc(N2CCN(CCC(=O)O)CC2)cc1", "GI50": "> 100 µM (inactive)"}

Lookup: Which GI50 is listed for CCOC(=O)C1C(c2ccccc2)C2(C#N)C(=N)OC1(C)C2(C#N)C#N (stereo unspecified) ?
Found: 28.7 µM (inactive)

Lookup: Which GI50 is listed for CCOC(=O)c1[nH]c2c(OC)n[n+]([O-])cc2c1[N+](=O)[O-] ?
Found: 17 µM (inactive)

Lookup: Which GI50 is listed for COC(=O)/C=C\C(C#N)(C#N)/N=C/c1cccc(OC)c1 ?
Found: 15.9 µM (inactive)

Lookup: Which GI50 is listed for CN(C)c1ccc(/C=N/c2ccc(-c3nc4ccccc4[nH]3)cc2)cc1 ?
Found: 39.2 µM (inactive)

Lookup: Which GI50 is listed for Cc1ccc(/C=C/C(=O)c2cccc3ccccc23)cc1 ?
Found: 13 µM (inactive)

Lookup: Which GI50 is listed for NC1=C(Cl)C(=O)c2ccccc2C1=O ?
Found: 4.34 µM (inactive)

Lookup: Which GI50 is listed for CCC(C)OC(=O)C1C2CCC(O2)C1C(=O)O (stereo unspecified) ?
Found: > 44.3 µM (inactive)

Lookup: Which GI50 is listed for O=c1c(O)c(-c2cc(O)c(O)c(O)c2)oc2cc(O)cc(O)c12 ?
Found: 18.7 µM (inactive)

Lookup: Which GI50 is listed for O=C(O)/C=C/C(=O)Nc1cccc2c1-c1ccccc1C2=O ?
Found: 5.27 µM (inactive)

Lookup: Which GI50 is listed for CC(C)(Sc1cc(C(C)(C)C)c(O)c(C(C)(C)C)c1)Sc1cc(C(C)(C)C)c(O)c(C(C)(C)C)c1 ?
Found: > 100 µM (inactive)

Lookup: Which GI50 is listed for N#CS/C(C(Cl)=C(Cl)Cl)=C(/Cl)[N+](=O)[O-] ?
Found: 14.1 µM (inactive)

Lookup: Which GI50 is listed for CCOC(=O)C(C(CC(=O)OC)NC(=O)OCc1ccccc1)C1(C)OCCO1 (stereo unspecified) ?
Found: > 100 µM (inactive)

Lookup: Which GI50 is listed for CN1CCN(C2CC(=O)c3c(Cl)sc(Cl)c32)CC1 (stereo unspecified) ?
Found: 11.3 µM (inactive)

Lookup: Which GI50 is listed for Cc1ccc2c(c1)NC(=O)CC(c1ccccc1)=N2 ?
Found: > 100 µM (inactive)

Lookup: Which GI50 is listed for CN(C)C1(N(C)C)Oc2c(c(=O)n(C)c(=O)n2C)C(c2ccc(Br)cc2)C1(F)F (stereo unspecified) ?
Found: > 100 µM (inactive)

Lookup: Which GI50 is listed for CC(=O)O[C@H]1CCC2[C@@H]3CCC4Cc5nc6c(nc5C[C@]4(C)C3CC[C@@]21C)CC1CC[C@@H]2C(CC[C@@]3(C)C2CC[C@@H]3C(C)CCCC(C)C)[C@@]1(C)C6 (stereo partly specified) ?
Found: > 100 µM (inactive)

Lookup: Which GI50 is listed for COc1cc(OC)c(/C=N\Nc2nc3ccccc3c(=O)n2-c2ccccc2)c(OC)c1 ?
Found: 32.1 µM (inactive)

Lookup: Which GI50 is listed for COc1cc(C=C2C(=O)NC(=O)NC2=O)cc(OC)c1OC ?
Found: > 100 µM (inactive)
